- assay.protocol: Solubility in PBS
- Assay type: physicochemical
- measurement.setup: Solubility (uM)
Reported Solubility values follow for various compounds
State just the number; it will be interpreted in µM.

compound="COC[C@@H]1NC(=O)[C@H](Cc2ccccc2)NC(=O)[C@H](C)NC(=O)[C@H](C)NC(=O)[C@H](CCC(=O)O)NC(=O)[C@H](CC(=O)O)NC(=O)C2(CCCC=CCCCCCC[C@@](C)(C(=O)N[C@@H](Cc3ccccc3)C(=O)N[C@@H](Cc3csc4ccccc34)C(=O)N[C@@H](CCC(N)=O)C(N)=O)NC1=O)CCCC=CC[C@]1(CCCN1C(C)=O)C(=O)N[C@@H](CC(=O)O)C(=O)N[C@@H](C)C(=O)N2 (stereo partly drawn)" result=39

Lab note: CC(=O)N1CCC[C@]12CC=CCCCC1(CCCC=CCCCCCC[C@@](C)(C(=O)N[C@@H](Cc3ccccc3Cl)C(=O)N[C@@H](Cc3csc4ccccc34)C(=O)N[C@H](CCC(N)=O)C(N)=O)NC(=O)[C@H](CC(C)C)NC(=O)[C@H](Cc3ccccc3)NC(=O)[C@H](C)NC(=O)[C@H](C)NC(=O)[C@H](CC(=O)O)NC(=O)[C@H](CC(=O)O)NC1=O)NC(=O)[C@H](CC(C)(C)C)NC(=O)[C@H](CC(=O)O)NC2=O (stereo partly drawn) gave Solubility of 47

Lab note: CC[C@H](C)[C@@H]1NC(=O)[C@H](CC(=O)O)NC(=O)[C@]2(CC=CCCCC3(CCCC=CCCCCCC[C@@](C)(C(=O)N[C@@H](Cc4ccccc4)C(=O)N[C@@H](Cc4csc5ccccc45)C(=O)N[C@@H](CCC(N)=O)C(N)=O)NC(=O)[C@H](CCC(N)=O)NC(=O)[C@H](CC4CCCCC4)NC(=O)[C@H](C)NC(=O)[C@H](C)NC(=O)[C@H](CCC(=O)O)NC(=O)[C@H](CC(=O)O)NC3=O)NC1=O)CCCN2C(C)=O (stereo partly drawn) gave Solubility of 27
